Substrate: O=C(/C=C/c1ccc(O)cc1)c1c(O)cc(O)cc1O
assay-notes: purified protein
measured-metric: Km
A bare number is not enough; add the unit after it.

Worked examples follow.
>  <protein>
AtCHI-1 (Arabidopsis thaliana) (protein) MSSSNACASPSPFPAVTKLHVDSVTFVPSVKSPASSNPLFLGGAGVRGLDIQGKFVIFTVIGVYLEGNAVPSLSVKWKGKTTEELTESIPFFREIVTGAFEKFIKVTMKLPLTGQQYSEKVTENCVAIWKQLGLYTDCEAKAVEKFLEIFKEETFPPGSSILFALSPTGSLTVAFSKDDSIPETGIAVIENKLLAEAVLESIIGKNGVSPGTRLSVAERLSQLMMKNKDEKEVSDHSVEEKLAKEN

>  <Km>
62 ± 9 µM

$$$$
>  <protein>
MsCHI-2 (Medicago sativa) (protein) MAASITAITVENLEYPAVVTSPVTGKSYFLGGAGERGLTIEGNFIKFTAIGVYLEDIAVASLAAKWKGKSSEELLETLDFYRDIISGPFEKLIRGSKIRELSGPEYSRKVMENCVAHLKSVGTYGDAEAEAMQKFAEAFKPVNFPPGASVFYRQSPDGILGLSFSPDTSIPEKEAALIENKAVSSAVLETMIGEHAVSPDLKRCLAARLPALLNEGAFKIGN

>  <Km>
112 ± 28 µM

$$$$

(Q) // lookup Km for AtCHI-1 (Arabidopsis thaliana; V106G) (protein) MSSSNACASPSPFPAVTKLHVDSVTFVPSVKSPASSNPLFLGGAGVRGLDIQGKFVIFTVIGVYLEGNAVPSLSVKWKGKTTEELTESIPFFREIVTGAFEKFIKGTMKLPLTGQQYSEKVTENCVAIWKQLGLYTDCEAKAVEKFLEIFKEETFPPGSSILFALSPTGSLTVAFSKDDSIPETGIAVIENKLLAEAVLESIIGKNGVSPGTRLSVAERLSQLMMKNKDEKEVSDHSVEEKLAKEN
(A) 19.0 ± 0.5 µM

Hey, just so you know, these numbers are from paper doi:10.1101/457440v1.
